Values from the supplement of paper PMC9112550

System: Escherichia coli TOP10;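 further: peptides expressed intracellularly from a pBAD plasmid library in pooled LB shake-flask culture, induced with 0.3% L-arabinose, DNA abundance read by NGS, three biological replicates, DESeq2 with apeglm shrinkage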
Assay: shrunken log2 fold change of peptide-encoding DNA abundance (4.5 h post-induction vs induction); higher = less antimicrobial activity (less host growth inhibition)
Conditions: time post-induction: 4.5 h; library: site-saturation at positions 5, 18, 19, 20
Response key: Fulfilled means shrunken log2 fold change >= 0.04; Not fulfilled means shrunken log2 fold change < 0.04.

INPUT: Check this sequence for shrunken log2 fold change at or above 0.04: RRIRHRPPRLPRPRPRPMYDPRP
OUTPUT: Not fulfilled

INPUT: Moving on to RRIRPRPPRLPRPRPRPMTWPRP
OUTPUT: Not fulfilled

INPUT: Entry RRIRCRPPRLPRPRPRPQQKPRP please
OUTPUT: Fulfilled

INPUT: Follow-up item: RRIRERPPRLPRPRPRPGPAPRP
OUTPUT: Fulfilled

INPUT: Could you do the same for RRIRARPPRLPRPRPRPVDWPRP , please?
OUTPUT: Fulfilled

INPUT: Next sequence up: RRIRGRPPRLPRPRPRPQGEPRP
OUTPUT: Fulfilled

INPUT: What do we get for RRIRWRPPRLPRPRPRPDNYPRP ?
OUTPUT: Not fulfilled

INPUT: Same for RRIRKRPPRLPRPRPRPASWPRP
OUTPUT: Fulfilled

INPUT: Thanks! And RRIRQRPPRLPRPRPRPECGPRP ?
OUTPUT: Fulfilled

INPUT: What do we get for RRIRSRPPRLPRPRPRPEHNPRP ?
OUTPUT: Not fulfilled

INPUT: Note, next up: RRIRGRPPRLPRPRPRPNLTPRP
OUTPUT: Fulfilled

INPUT: Next entry: RRIRVRPPRLPRPRPRPTPEPRP
OUTPUT: Fulfilled

INPUT: Same question, RRIRSRPPRLPRPRPRPEYVPRP this time
OUTPUT: Fulfilled

INPUT: // next record RRIRQRPPRLPRPRPRPAINPRP
OUTPUT: Not fulfilled

INPUT: Try this sequence next: RRIRKRPPRLPRPRPRPHSNPRP
OUTPUT: Fulfilled

INPUT: Now consider RRIRERPPRLPRPRPRPDRNPRP .
OUTPUT: Not fulfilled

INPUT: Follow-up item: RRIRMRPPRLPRPRPRPNLWPRP
OUTPUT: Fulfilled

INPUT: Then what about the sequence RRIRNRPPRLPRPRPRPGAQPRP ?
OUTPUT: Not fulfilled

INPUT: Would you kindly repeat that for RRIRPRPPRLPRPRPRPYIQPRP ?
OUTPUT: Not fulfilled

INPUT: Next record, please: RRIRHRPPRLPRPRPRPIYIPRP
OUTPUT: Not fulfilled

INPUT: Input RRIRKRPPRLPRPRPRPHHNPRP
OUTPUT: Not fulfilled

INPUT: Repeat with RRIRGRPPRLPRPRPRPMDGPRP
OUTPUT: Not fulfilled

INPUT: Now give it for RRIRLRPPRLPRPRPRPCTMPRP too.
OUTPUT: Not fulfilled

INPUT: Entry to check: RRIRHRPPRLPRPRPRPQTDPRP
OUTPUT: Not fulfilled

INPUT: Could you do the same for RRIRARPPRLPRPRPRPDIDPRP , please?
OUTPUT: Fulfilled

INPUT: Same question for RRIRRRPPRLPRPRPRPIFKPRP please.
OUTPUT: Fulfilled

INPUT: Here is the next sequence: RRIRARPPRLPRPRPRPPQMPRP
OUTPUT: Fulfilled

INPUT: Could you do the same for RRIRMRPPRLPRPRPRPNQGPRP , please?
OUTPUT: Not fulfilled

INPUT: What do we get for RRIRWRPPRLPRPRPRPRTWPRP ?
OUTPUT: Fulfilled

INPUT: What about this sequence? RRIRTRPPRLPRPRPRPRDNPRP
OUTPUT: Not fulfilled

INPUT: Next up: RRIRQRPPRLPRPRPRPQIMPRP
OUTPUT: Not fulfilled

INPUT: Further, for RRIRKRPPRLPRPRPRPNEHPRP ?
OUTPUT: Fulfilled

INPUT: And what about the sequence RRIRERPPRLPRPRPRPVVNPRP ?
OUTPUT: Not fulfilled

INPUT: // query: RRIRARPPRLPRPRPRPRFRPRP
OUTPUT: Fulfilled

INPUT: Now the sequence RRIRTRPPRLPRPRPRPHAQPRP
OUTPUT: Fulfilled

INPUT: Would you kindly repeat that for RRIRVRPPRLPRPRPRPMAGPRP ?
OUTPUT: Not fulfilled

INPUT: What do we get for RRIRFRPPRLPRPRPRPNEHPRP ?
OUTPUT: Not fulfilled

INPUT: Would you kindly repeat that for RRIRARPPRLPRPRPRPTTHPRP ?
OUTPUT: Fulfilled

INPUT: Then what about the sequence RRIRNRPPRLPRPRPRPYDDPRP ?
OUTPUT: Not fulfilled

INPUT: Try RRIRVRPPRLPRPRPRPEYAPRP next.
OUTPUT: Fulfilled

INPUT: Also check RRIRMRPPRLPRPRPRPPKDPRP
OUTPUT: Fulfilled

INPUT: Same question for RRIRSRPPRLPRPRPRPNPFPRP please.
OUTPUT: Not fulfilled

INPUT: Next record, please: RRIRQRPPRLPRPRPRPSNDPRP
OUTPUT: Not fulfilled

INPUT: One more sequence: RRIRMRPPRLPRPRPRPRFEPRP
OUTPUT: Fulfilled

INPUT: Cool, now RRIRIRPPRLPRPRPRPAMHPRP
OUTPUT: Not fulfilled

INPUT: And then RRIRKRPPRLPRPRPRPVSSPRP , what is it?
OUTPUT: Not fulfilled

INPUT: Same again, this time with RRIRSRPPRLPRPRPRPTPLPRP
OUTPUT: Fulfilled

INPUT: Continue with RRIRVRPPRLPRPRPRPWAIPRP
OUTPUT: Not fulfilled

INPUT: // query: RRIRTRPPRLPRPRPRPVSIPRP
OUTPUT: Not fulfilled
